Values were extracted from the supplement of paper PMC7125110.

Measured self-cleavage kobs at 40 uM GlcN6P accompanies every entry in the list below.
B1: glmS ribozyme (parent)
chain: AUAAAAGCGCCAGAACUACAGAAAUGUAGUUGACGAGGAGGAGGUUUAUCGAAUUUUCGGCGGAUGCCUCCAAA

Variants of: B1
assay text: self-cleavage kobs at 40 uM GlcN6P; higher = faster cleavage; RNA array
experimental context: with glucosamine-6-phosphate
This sample holds only a part of the variants without activity.

Below, 10 variants whose answers are already recorded.
{"columns": ["biosequence", "self-cleavage kobs at 40 uM GlcN6P"],
 "data": [
  ["AUAAAUGCGCCUGAACUACAGAAAUGUAGUUGACGAGGAGGAAGUUGAUCGAAUUUUCGGCGGAUGCCUCCAAA [A6U A12U G43A U47G]", "< 1e-05 s⁻¹"],
  ["AUAAAAGCGCCAGUACUACAGAAAUGUAGUUGACGAGGAGGAGGUUUAUCAAAUUUUCGGCGGAUGCCUCCAAA [A14U G51A]", "< 1e-05 s⁻¹"],
  ["AUAAAAGCGCCAGAACUACAGAAAUGUAGUUGACGAGGAGGAGGUUUAUCGAAUUUUCAGCGGAUGCAUCCAAA [G59A C68A]", "< 1e-05 s⁻¹"],
  ["AUAAAAUCGCCAGAACUAAAGAAAUGUAGUUGACGGGGCGGAGGUUUAUCGAAUUUUCGGCGGAUGCCUCCAAA [G7U C19A A36G A39C]", "< 1e-05 s⁻¹"],
  ["AUAAAAGCGCCUGAACUACAGAAAUGUAGUCGACGAGGAGAAGGUUUAUCGAAUUUUCGUCGGAUGCCUCCAAA [A12U U31C G41A G60U]", "< 1e-05 s⁻¹"],
  ["AUAAAACCGCGAGAACUACAGAAAUGUAGUUGACGAGGAGGAGGUUUAUCAAAUUUUCGGCGGAUGCCUCCAAA [G7C C11G G51A]", "< 1e-05 s⁻¹"],
  ["AUAAAAGCGCCAGAACUACAGAAAUGUAGUUGACGAGGAGGAGGUUGAUCGGAUUUUCGGCGGAUGCCCCCAAA [U47G A52G U69C]", "6.7e-05 s⁻¹"],
  ["AUAAAAGCGCCAGAACUACAGAAAUGUAGUUGAAGAUGAGGAGGUUUAUCGAAUUUUCGGCGGAUGCUUCCAAA [C34A G37U C68U]", "< 1e-05 s⁻¹"],
  ["AUAAAAGCGCCAGAACUACAGAAAUGUAGUUGACGAGGAGGAGGUUUAUCGUGUUUUCGGUGGAUGCCUCCAAA [A52U A53G C61U]", "< 1e-05 s⁻¹"],
  ["AUAAAAGCGGCAGAAGUACAGAAAUGUAGUUGACGAGGAUGAGGUUUAUCGAAUUUUCGGCGGAUGCCUCCAAA [C10G C16G G40U]", "< 1e-05 s⁻¹"]
]}

Problem: Retrieve self-cleavage kobs at 40 uM GlcN6P measured for AUAAAAGCGCCUGAACUACAGAAAUGUAGUUGACGAGGAGGAGGUUUAUCGAAUUUUCGGCGGAUUCCUCCAAA [A12U G66U] and print it.
Solution: 0.000146 s⁻¹

Problem: Report self-cleavage kobs at 40 uM GlcN6P, nothing else, for this variant: AUAAAAGCGCCAGAACUACAGAAAUGUAGUUGACGAGGAGGAGGUUUACCGAAUUUUCUGCGGAUGCCUCCAAA [U49C G59U]
Solution: < 1e-05 s⁻¹
